- target_entity: SHP2-C SH2;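 note: peptide library displayed on the E. coli surface as eCPX fusions, selected cells deep-sequenced, score is each peptide's frequency after selection divided by its frequency in the input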
- test_details: SH2 binding enrichment of the phosphorylated peptide, bacterial display (enrichment ratio); higher = better substrate or ligand; peptides without Tyr show the background
parameter: SH2 binding enrichment

- sequence_record: "SLESAYPEVSQ [TTF1_Y357_G360V]"
  target_entity: "SHP2-C SH2"
  parameter: "SH2 binding enrichment"
  endpoint_value: 0.607

I. DTQNSYGCATS [TSC1_Y304]
II. DDHFTYSRFPW [LY75_Y888_YF]
III. TLNVRYESVQA [CEACAM7_Y236]
Write the entries in order, lowest recorded SH2 binding enrichment first. Provide your answer as the labels ordered per the instruction.
II, I, III
(II: 0.64, I: 0.918, III: 1.52)

P. GGQVFHNSEYG [FLT4_Y1333_Y1333H]
Q. VMAVAYRLAEQ [HK1_Y461_T457M]
Among P and Q , which shows a numerically higher SH2 binding enrichment result? Label of pick, please.
Q
(Q: 1.03, P: 0.655)

1. YRASYYRKGGC [ALK_Y1283]
2. HNMPIYEGFAL [ACTA1_Y168_V165M_YF]
Among 1 and 2 , which shows a numerically higher SH2 binding enrichment result? Label of pick, please.
2

I. VCDALYPPGPP
II. WDLSEYSFKDP [ITGA3_Y237_YF]
III. LLDGEYFTLQI [TP53_Y327_P322L]
IV. MACDRYVAICS [OR8D4_Y123]
Thanks in advance: please rank these 4 entries by SH2 binding enrichment, highest to lowest. Provide your answer as the labels ordered per the instruction.
IV, II, I, III

----------
- target_entity: FGFR1 (UniProt P11362)
- Sequence (P11362 whole entry, looked up): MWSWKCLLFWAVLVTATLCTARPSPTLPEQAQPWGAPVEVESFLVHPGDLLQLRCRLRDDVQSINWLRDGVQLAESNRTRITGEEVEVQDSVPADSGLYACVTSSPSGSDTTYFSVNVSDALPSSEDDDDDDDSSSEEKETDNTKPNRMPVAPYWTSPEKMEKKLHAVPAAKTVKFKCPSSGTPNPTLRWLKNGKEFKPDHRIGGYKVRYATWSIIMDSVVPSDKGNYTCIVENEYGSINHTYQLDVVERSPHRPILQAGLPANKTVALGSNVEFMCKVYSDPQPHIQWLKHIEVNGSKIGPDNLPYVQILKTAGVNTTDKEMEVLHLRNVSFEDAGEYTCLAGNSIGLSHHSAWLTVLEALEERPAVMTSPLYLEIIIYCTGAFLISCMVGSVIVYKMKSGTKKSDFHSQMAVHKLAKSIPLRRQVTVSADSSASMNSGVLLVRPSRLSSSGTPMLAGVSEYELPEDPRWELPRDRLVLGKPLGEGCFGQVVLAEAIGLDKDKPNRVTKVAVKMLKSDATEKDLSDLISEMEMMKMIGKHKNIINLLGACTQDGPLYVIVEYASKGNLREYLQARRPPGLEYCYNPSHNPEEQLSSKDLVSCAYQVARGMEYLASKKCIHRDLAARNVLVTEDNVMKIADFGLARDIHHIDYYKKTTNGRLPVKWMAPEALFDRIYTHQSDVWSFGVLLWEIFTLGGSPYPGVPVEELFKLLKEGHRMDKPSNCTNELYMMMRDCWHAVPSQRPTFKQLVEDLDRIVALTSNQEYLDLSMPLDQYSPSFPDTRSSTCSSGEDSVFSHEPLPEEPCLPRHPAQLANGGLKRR
- test_details: phosphorylation enrichment, bacterial display (enrichment ratio); higher = better substrate or ligand; peptides without Tyr show the background
Recorded phosphorylation enrichment by entry
Respond with the number and no other words.

// known answers, use as guide
- sequence_record: "KFLENYLNCLL [PLD2_Y169_R172C_YF]"
  target_entity: "FGFR1 (UniProt P11362)"
  endpoint_value: 0.759
- sequence_record: "LKSEMYQKLLK [RGS13_Y146]"
  target_entity: "FGFR1 (UniProt P11362)"
  endpoint_value: 0.749
- sequence_record: "RKRQFYLYKGK [RSPO4_Y112_C107R]"
  target_entity: "FGFR1 (UniProt P11362)"
  endpoint_value: 0.437
- sequence_record: "WCSNDHLGMSR [ALAS2_Y199_Y199H]"
  target_entity: "FGFR1 (UniProt P11362)"
  endpoint_value: 0.416
- sequence_record: "HKLSYCEYDFE [BTK_Y40_Y40C]"
  target_entity: "FGFR1 (UniProt P11362)"
  endpoint_value: 0.762

I'd like to know its phosphorylation enrichment. The sequence in question is RIVEIYSRRLQ [GCH1_Y175]
0.777

I'd like to know its phosphorylation enrichment. The sequence in question is IVAREYFSEAD [CAMK2A_Y106_YF]
0.508

I'd like to know its phosphorylation enrichment. The sequence in question is YGTAQYCCRMG [LRRK2_Y2023_I2020T]
0.498

I'd like to know its phosphorylation enrichment. The sequence in question is FEPDAYFDLDQ [ELP5_Y302_D303Y_YF]
5.04

I'd like to know its phosphorylation enrichment. The sequence in question is RAIGHYSATSK [FAM120A_Y328_Y327H]
0.576

I'd like to know its phosphorylation enrichment. The sequence in question is LSQQVYRVNLS [FAT4_Y480_F475L]
0.428

I'd like to know its phosphorylation enrichment. The sequence in question is RHTRSYDYMEG [FGF7_Y56]
0.7

I'd like to know its phosphorylation enrichment. The sequence in question is ARGTRYRFVSQ [UCN3_Y95_YF]
0.483

I'd like to know its phosphorylation enrichment. The sequence in question is GREAEYSEKHG [EPHB4_Y574_D576E]
0.418

I'd like to know its phosphorylation enrichment. The sequence in question is GLDGSYLLRDS [SH2D1A_Y29]
0.426

I'd like to know its phosphorylation enrichment. The sequence in question is KLSFSYGRALQ [ALDOB_Y302]
0.519

I'd like to know its phosphorylation enrichment. The sequence in question is IIGNGYYFRVF [MYBPC3_Y1135]
0.374

I'd like to know its phosphorylation enrichment. The sequence in question is ITNLLYHVVSW [GBA_Y412_G416S]
9.38

Where these numbers come from: the supplement of paper PMC10065799
